Target: KRAS^G12C (Homo sapiens, UniProt P01116, C118A/G12C)
Sequence (P01116 1-169 isoform P01116-2 G12C/C118A): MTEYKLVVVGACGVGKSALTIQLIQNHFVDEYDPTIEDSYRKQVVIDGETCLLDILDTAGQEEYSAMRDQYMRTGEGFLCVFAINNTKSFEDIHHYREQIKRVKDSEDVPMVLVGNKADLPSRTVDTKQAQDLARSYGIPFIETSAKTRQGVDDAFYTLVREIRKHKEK
Assay: Coupled Nucleotide Exchange Assay
Details: GDP-bound KRAS (aa 1-169) G12C/C118A; 2 h compound pre-incubation; SOS-mediated exchange, 30 min; cRAF binding (AlphaLISA)
pIC50: −log10 of the molar value.
parameter.measured: pIC50

compound	pIC50
C=CC(=O)N1CCN(C2CN(c3cc(N4CCC5(CC4)OCC=C5C)nc(C(F)(F)F)c3C#N)C2)CC1	6.99

(P) C=CC(=O)N1CCN([C@@H]2CN(c3cc(N4CCC5(C[C@H]4C)OCC=C5C)nc(C(F)F)n3)[C@@H]2C)CC1 (some centres unmarked)
(Q) C=CC(=O)N1CCN(C2CN(c3cc(N4CCC5(CC4)CC(C)(C)CO5)nc(C(F)(F)F)c3C#N)C2)CC1
Prompt: From the items above, decide which of P and Q has the lower pIC50 reading. Answer = label.
Response: Q
